Recorded measurements of IC50, one per entry
tested on: A-375 (melanoma); test: MTS cell viability assay, A-375; format: cell-based; details: cells incubated 72 h
Report as a plain number; the unit µM is understood.

C=C(C)[C@@H]1CC[C@]2(C(=O)O)CC[C@]3(C)[C@H](CC[C@@H]4[C@@]5(C)CC[C@H](O)C(C)(C)[C@@H]5CC[C@]43C)[C@@H]12 [Compound 1, reference compound] | 22
C=C(CNCCO)[C@@H]1CC[C@]2(CO)CC[C@]3(C)[C@H](CC[C@@H]4[C@@]5(C)CCC(NCCO)C(C)(C)[C@@H]5CC[C@]43C)[C@@H]12 (stereo partly drawn) [Compound 24bh] | 6

Shift focus to the following entry.
Problem: Answer with the recorded IC50 for the compound listed here: C=C(CO)[C@@H]1CC[C@]2(CO)CC[C@]3(C)[C@H](CC[C@@H]4[C@@]5(C)CCC(NCCOC)C(C)(C)[C@@H]5CC[C@]43C)[C@@H]12 (stereo partly drawn) [Compound 24af]
Result: 18

###

Recorded measurements of IC50, one per entry
tested on: SK-MEL-2 (melanoma); experiment: MTS cell viability assay, SK-MEL-2; type: cell-based; conditions: Homo sapiens, SK-MEL-2, cells incubated 72 h
Report as a plain number; the unit µM is understood.

Recorded results for 3 compounds are shown here.
C=C(CNCCO)[C@@H]1CC[C@]2(CO)CC[C@]3(C)[C@H](CC[C@@H]4[C@@]5(C)CCC(O)C(C)(C)[C@@H]5CC[C@]43C)[C@@H]12 (some centres unmarked) [Compound 23b] | 15
C=C(CO)[C@@H]1CC[C@]2(CO)CC[C@]3(C)[C@H](CC[C@@H]4[C@@]5(C)CCC(NCCO)C(C)(C)[C@@H]5CC[C@]43C)[C@@H]12 (some centres unmarked) [Compound 24ad] | 34
CC(CNCCO)[C@@H]1CC[C@]2(COC3CCCCO3)CC[C@]3(C)[C@H](CC[C@@H]4[C@@]5(C)CCC(O)C(C)(C)[C@@H]5CC[C@]43C)[C@@H]12 (some centres unmarked) [Compound 36a] | 4

Problem: Answer with the recorded IC50 for the compound listed here: C=C(CO)[C@@H]1CC[C@]2(CO)CC[C@]3(C)[C@H](CC[C@@H]4[C@@]5(C)CCC(NCCc6ccc(O)c(O)c6)C(C)(C)[C@@H]5CC[C@]43C)[C@@H]12 (some centres unmarked) [Compound 24aj]
Result: 24

Problem: Answer with the recorded IC50 for the compound listed here: C=C(CO)[C@@H]1CC[C@]2(COC3CCCCO3)CC[C@]3(C)[C@H](CC[C@@H]4[C@@]5(C)CCC(N)C(C)(C)[C@@H]5CC[C@]43C)[C@@H]12 (some centres unmarked) [Compound 24aa]
Result: 5

Problem: Answer with the recorded IC50 for the compound listed here: C=C(CNCCO)[C@@H]1CC[C@]2(COC3CCCCO3)CC[C@]3(C)[C@H](CC[C@@H]4[C@@]5(C)CCC(N)C(C)(C)[C@@H]5CC[C@]43C)[C@@H]12 (some centres unmarked) [Compound 24ba]
Result: 5

Problem: Answer with the recorded IC50 for the compound listed here: C=C(CO)[C@@H]1CC[C@]2(COC3CCCCO3)CC[C@]3(C)[C@H](CC[C@@H]4[C@@]5(C)C=CC(=O)C(C)(C)[C@@H]5CC[C@]43C)[C@@H]12 (some centres unmarked)
Result: 19
